Reference source for all entries: patent US7030145B2

# Lookup of reported melting point keyed by entry
recorded-endpoint: melting point

Cc1cc(C)c(Nc2nc(C)ccc2S(=O)(=O)c2ccc(Br)cc2)c(C)c1 [Example 46]: 140 to 141 °C
Cc1cc(C)c(Nc2nc(C)ccc2S(=O)(=O)c2ccc(OCc3csc(C)n3)cc2)c(C)c1 [Example 21]: 200 to 201 °C
COc1ccccc1COc1ccc(S(=O)(=O)c2ccc(C)nc2Nc2cc(F)c(N(C)C)cc2Cl)cc1 [Example 3]: 68 to 70 °C
Cc1cc(C)c(Nc2nc(C)ccc2S(=O)(=O)c2ccc(OCCCC#N)cc2)c(C)c1 [Example 14]: 160 to 162 °C
COc1cccc(S(=O)(=O)c2ccc(C)nc2Nc2c(C)cc(C)cc2C)c1 [Example 56]: 87 to 88 °C
COc1ccccc1COc1ccc(S(=O)(=O)c2ccc(C)nc2Nc2c(C)cc(C)cc2C)cc1 [Example 27]: 148 to 150 °C
Cc1cc(C)c(Nc2nc(C)ccc2S(=O)(=O)c2ccc(OCc3cc(Cl)nc(Cl)c3)cc2)c(C)c1 [Example 20]: 192 to 201 °C
CCOc1ccc(S(=O)(=O)c2ccc(C)nc2Nc2c(C)cc(C)cc2C)cc1 [Example 12]: 157 to 159 °C
Cc1cc(C)c(Nc2nc(C)ccc2S(=O)(=O)c2ccc(OCc3cccc(F)c3F)cc2)c(C)c1 [Example 33]: 136 to 138 °C
COC(=O)c1cccc(COc2ccc(S(=O)(=O)c3ccc(C)nc3Nc3c(C)cc(C)cc3C)cc2)c1 [Example 25]: 148 to 150 °C
CCc1ccc(S(=O)(=O)c2ccc(C)nc2Nc2ccc(OC)cc2Cl)cc1 [Example 69]: 110 to 112 °C
Cc1cc(C)c(Nc2nc(C)ccc2S(=O)(=O)c2ccc(OCc3c(C)cccc3C)cc2)c(C)c1 [Example 36]: 136 to 138 °C
COc1ccccc1COc1ccc(S(=O)(=O)c2ccc(C)nc2Nc2ccc(Cl)cc2C#N)cc1 [Example 8]: 178 to 180 °C
COc1ccccc1COc1ccc(S(=O)(=O)c2ccc(C)nc2Nc2cc(OC)c(OC)cc2C)cc1 [Example 4]: 62 to 66 °C
Cc1cc(C)c(Nc2nc(C)ccc2S(=O)(=O)c2ccc(O)cc2)c(C)c1 [Example 10]: 226 to 228 °C
Cc1cc(C)c(Nc2nc(C)ccc2S(=O)(=O)c2ccc(OCc3ccccn3)cc2)c(C)c1 [Example 19]: 182 to 184 °C
Cc1cc(C)c(Nc2nc(C)ccc2S(=O)(=O)c2ccc(OCc3cccc(C#N)c3)cc2)c(C)c1 [Example 24]: 155 to 158 °C
CCC(Oc1ccc(S(=O)(=O)c2ccc(C)nc2Nc2c(C)cc(C)cc2C)cc1)C(=O)OC (centres unmarked) [Example 18]: 111 to 113 °C
COc1cccc(COc2ccc(S(=O)(=O)c3ccc(C)nc3Nc3c(C)cc(C)cc3C)cc2)c1 [Example 26]: 124 to 126 °C
COc1ccc(OC)c(COc2ccc(S(=O)(=O)c3ccc(C)nc3Nc3c(C)cc(C)cc3C)cc2)c1 [Example 31]: 128 to 130 °C
Cc1cc(C)c(Nc2nc(C)ccc2S(=O)(=O)c2ccc(OCc3ccccc3)cc2)c(C)c1 [Example 11]: 158 to 160 °C
COc1cc(Cl)c(Nc2nc(C)ccc2S(=O)(=O)c2ccc(OCc3ccccc3OC)cc2)cc1F [Example 2]: 62 to 64 °C
Cc1cc(C)c(Nc2nc(C)ccc2S(=O)(=O)c2ccc(OCc3ccc(C#N)cc3)cc2)c(C)c1 [Example 23]: 208 to 210 °C
Cc1cc(C)c(Nc2nc(C)ccc2S(=O)(=O)c2ccc(C(=O)c3ccccc3)cc2)c(C)c1 [Example 54]: 222 to 225 °C
COc1ccc(S(=O)(=O)c2ccc(C)nc2Nc2c(C)cc(C)cc2C)cc1 [Example 9]: 165 to 167 °C
COc1cccc(COc2ccc(S(=O)(=O)c3ccc(C)nc3Nc3c(C)cc(C)cc3C)cc2)c1OC [Example 32]: 124 to 126 °C
COc1ccc(C(C)=O)cc1COc1ccc(S(=O)(=O)c2ccc(C)nc2Nc2c(C)cc(C)cc2C)cc1 [Example 35]: 141 to 143 °C
CCOC(=O)COc1ccc(S(=O)(=O)c2ccc(C)nc2Nc2c(C)cc(C)cc2C)cc1 [Example 17]: 116 to 118 °C
Cc1cc(C)c(Nc2nc(C)ccc2S(=O)(=O)c2ccc(OCCCO)cc2)c(C)c1 [Example 16]: 152 to 153 °C
